- tested system: TYK2 (Homo sapiens, UniProt P29597)
- Sequence (P29597 whole entry): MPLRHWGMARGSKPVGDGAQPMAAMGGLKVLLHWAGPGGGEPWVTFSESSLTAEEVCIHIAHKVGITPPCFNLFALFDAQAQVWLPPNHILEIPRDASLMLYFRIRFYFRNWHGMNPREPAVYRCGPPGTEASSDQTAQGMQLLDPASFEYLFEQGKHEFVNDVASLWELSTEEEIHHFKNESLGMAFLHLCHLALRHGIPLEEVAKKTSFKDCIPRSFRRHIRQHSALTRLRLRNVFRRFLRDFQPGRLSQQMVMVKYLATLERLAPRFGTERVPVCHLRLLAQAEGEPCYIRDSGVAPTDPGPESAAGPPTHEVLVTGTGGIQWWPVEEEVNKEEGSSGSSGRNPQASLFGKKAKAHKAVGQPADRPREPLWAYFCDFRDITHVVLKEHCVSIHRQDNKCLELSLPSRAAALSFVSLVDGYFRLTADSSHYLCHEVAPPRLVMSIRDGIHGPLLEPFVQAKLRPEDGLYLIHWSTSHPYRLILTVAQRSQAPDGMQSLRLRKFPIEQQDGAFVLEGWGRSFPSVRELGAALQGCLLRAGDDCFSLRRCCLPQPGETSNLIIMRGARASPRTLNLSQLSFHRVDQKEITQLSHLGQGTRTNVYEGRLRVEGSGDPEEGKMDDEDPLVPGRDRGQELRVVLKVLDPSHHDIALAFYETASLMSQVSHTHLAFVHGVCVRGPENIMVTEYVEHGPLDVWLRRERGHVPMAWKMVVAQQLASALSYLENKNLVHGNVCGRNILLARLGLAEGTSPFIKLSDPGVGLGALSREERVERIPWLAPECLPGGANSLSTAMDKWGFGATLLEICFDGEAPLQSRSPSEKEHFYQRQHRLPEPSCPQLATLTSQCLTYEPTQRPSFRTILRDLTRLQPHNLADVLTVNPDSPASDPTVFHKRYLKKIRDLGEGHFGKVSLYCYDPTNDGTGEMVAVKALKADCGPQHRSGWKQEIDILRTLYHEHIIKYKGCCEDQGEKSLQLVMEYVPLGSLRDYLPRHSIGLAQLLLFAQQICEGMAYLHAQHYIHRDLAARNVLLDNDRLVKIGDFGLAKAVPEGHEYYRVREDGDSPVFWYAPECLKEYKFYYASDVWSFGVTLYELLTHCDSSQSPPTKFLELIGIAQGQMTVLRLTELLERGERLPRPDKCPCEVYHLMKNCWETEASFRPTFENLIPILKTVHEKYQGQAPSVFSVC
value kind: IC50 (nM)
One number for each entry, in nM.

Data request: API: value(readout=IC50, system=TYK2 (Homo sapiens, UniProt P29597)) for record Cc1cnc(Nc2ccc(N3CCC(N(C)CCO)CC3)c(F)c2)nc1-c1cnn(C(C)C)c1 [FM]
Data returned: 65

---

- measurement description: PK and tissue distribution after single oral administration in Ba/F3-EPOR-JAK2^V617F tumor-bearing mice
- Type: in vivo
- study conditions: BALB/c nude, mouse, brain, oral, 30 mg/kg; single; 2 h; read-out: FM concentration, Brain
value kind: concentration at 2 h (ng/g)
Give bare numbers, in ng/g.

Data request: Query: concentration at 2 h; subject: Cc1cnc(Nc2ccc(N3CCC(N(C)CCO)CC3)c(F)c2)nc1-c1cnn(C(C)C)c1
Data returned: 309
